Tested on: pigweed
METHOD_SUMMARY: Test C postemergence
Assay type: in vivo, Amaranthus retroflexus
APPLIED_CONDITIONS: postemergence; 125 g ai/ha; scale 0 to 100, 0 no effect, 100 complete control
# Plant response rating, Pigweed annotations
MEASURED_PROPERTY: Plant response rating, Pigweed

In [3]: df
Out[3]:
                               input_smiles  measured_result
0  CCCc1cc(C(=O)NCC(F)(F)F)nn1Cc1ccnc(C(F)(F)F)c1               85
1  CCOc1cc(C(=O)NC2CC2)nn1Cc1ccnc(OC(F)F)c1               80
2  CCNC(=O)c1cc(CC)n(Cc2ccnc(C(F)(F)F)c2)n1               70
3  CCCc1cc(C(=O)NCC(F)(F)F)nn1Cc1cc(C(F)(F)F)nn1C               80
4   CCCNC(=O)c1cc(CC)n(Cc2ccnc(OC(F)F)c2)n1               35

====

Tested on: foxtail, giant
METHOD_SUMMARY: Test C postemergence
Type: in vivo, Setaria faberii
APPLIED_CONDITIONS: postemergence, 250 g ai/ha; scale 0 to 100 (0 no effect, 100 complete control)
MEASURED_PROPERTY: Plant response rating, Foxtail, Giant

In [3]: df
Out[3]:
                               input_smiles                      measured_property  measured_result
0  CCOc1cc(C(=O)NC2CC2)nn1Cc1ccnc(OC(F)F)c1  Plant response rating, Foxtail, Giant               80
1   CCCc1cc(C(=O)NCC)nn1Cc1ccnc(C(F)(F)F)c1  Plant response rating, Foxtail, Giant               60
2  CCOc1cc(C(=O)NC2CC2)nn1Cc1ccnc(C(F)(F)F)c1  Plant response rating, Foxtail, Giant               75
3   CCCc1cc(C(=O)NCC)nn1Cc1cc(C(F)(F)F)nn1C  Plant response rating, Foxtail, Giant               45
4   CCCNC(=O)c1cc(CC)n(Cc2ccnc(OC(F)F)c2)n1  Plant response rating, Foxtail, Giant               55
5  Cc1cc(C(=O)NC(C)C)nn1Cc1ccnc(C(F)(F)F)c1  Plant response rating, Foxtail, Giant               10
6  CCCc1cc(C(=O)NOCC)nn1Cc1ccnc(C(F)(F)F)c1  Plant response rating, Foxtail, Giant                5
7  CCCNC(=O)c1cc(CCC)n(Cc2cc(C(F)(F)F)nn2C)n1  Plant response rating, Foxtail, Giant               55

====

Tested on: oilseed rape
METHOD_SUMMARY: Test C postemergence
Assay type: in vivo, Brassica napus
APPLIED_CONDITIONS: postemergence; 125 g ai/ha; scale 0 to 100, 0 no effect, 100 complete control
# Plant response rating, Oilseed Rape annotations
MEASURED_PROPERTY: Plant response rating, Oilseed Rape

                               input_smiles                    measured_property  measured_result
0  CCc1cc(C(=O)NCC2CC2)nn1Cc1ccnc(C(F)(F)F)c1  Plant response rating, Oilseed Rape               55
1   CCCc1cc(C(=O)NCC)nn1Cc1ccnc(C(F)(F)F)c1  Plant response rating, Oilseed Rape               50
2  CCNC(=O)c1cc(CC)n(Cc2ccnc(C(F)(F)F)c2)n1  Plant response rating, Oilseed Rape               10
3  CCOc1cc(C(=O)NC2CC2)nn1Cc1ccnc(OC(F)F)c1  Plant response rating, Oilseed Rape               75
4   CCCNC(=O)c1cc(CC)n(Cc2ccnc(OC(F)F)c2)n1  Plant response rating, Oilseed Rape               65
5  CCOc1cc(C(=O)NC(C)C)nn1Cc1ccnc(C(F)(F)F)c1  Plant response rating, Oilseed Rape               70
6  CCCc1cc(C(=O)NCC(F)(F)F)nn1Cc1ccnc(C(F)(F)F)c1  Plant response rating, Oilseed Rape               85
7  CCc1cc(C(=O)NCC(F)(F)F)nn1Cc1ccnc(C(F)(F)F)c1  Plant response rating, Oilseed Rape               50
